Target: human S1P1 receptor (Homo sapiens)
Sequence (P21453 whole entry): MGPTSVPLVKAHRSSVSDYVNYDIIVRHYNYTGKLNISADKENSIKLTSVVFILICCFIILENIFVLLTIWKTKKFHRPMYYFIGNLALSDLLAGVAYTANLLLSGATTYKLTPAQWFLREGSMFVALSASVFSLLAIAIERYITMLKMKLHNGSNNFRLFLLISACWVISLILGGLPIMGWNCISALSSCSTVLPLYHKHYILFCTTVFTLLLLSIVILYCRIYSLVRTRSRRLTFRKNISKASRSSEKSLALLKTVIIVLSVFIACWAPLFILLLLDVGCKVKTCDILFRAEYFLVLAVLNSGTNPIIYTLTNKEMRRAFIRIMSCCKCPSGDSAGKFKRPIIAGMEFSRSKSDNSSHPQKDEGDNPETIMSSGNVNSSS
Assay: GTPγS assay to determine EC50 values
Format: biochemical
Conditions: membranes of CHO cells expressing recombinant human S1P1 receptor; 35S-GTPγS binding
Kindly supply the reported EC50 values for the records listed here.
All answers are understood in nM, so give the number only.

Task: Fetch value of EC50 on human S1P1 receptor (Homo sapiens) for CCc1cc(-c2nc(-c3cc(OC)nc(C4CCCC4)c3)no2)cc(C)c1OC[C@H](O)CO .
Output: 1

Task: Provide the reported EC50 (system: human S1P1 receptor (Homo sapiens)) for CCc1cc(-c2noc(-c3cc(OC)nc(C(CC)CC)c3)n2)cc(C)c1OC[C@@H](O)CN(C)C(=O)CO
Output: 17.8

Task: Fetch value of EC50 on human S1P1 receptor (Homo sapiens) for CCS(=O)(=O)Nc1c(C)cc(-c2noc(-c3cc(OC)nc(C4CCCC4)c3)n2)cc1Cl .
Output: 1.8

Task: Fetch value of EC50 on human S1P1 receptor (Homo sapiens) for CCc1cc(-c2noc(-c3cc(OC)nc(C4CCCC4)c3)n2)cc(C)c1NS(C)(=O)=O .
Output: 1

Task: Jot down EC50 (human S1P1 receptor (Homo sapiens)) of CCc1cc(-c2noc(-c3cc(OC)nc(C4CCCCC4)c3)n2)cc(C)c1OC[C@@H](O)CO .
Output: 6.4

Task: Under human S1P1 receptor (Homo sapiens), report EC50 for CCc1cc(-c2noc(-c3cc(OC)nc(C4CCCCC4)c3)n2)cc(C)c1OC[C@@H](O)CNC(=O)CO
Output: 10.8

Task: # return EC50 of CCc1cc(-c2nnc(-c3cc(OC)nc(C4CCCC4)c3)o2)cc(C)c1OC[C@@H](O)CO (system: human S1P1 receptor (Homo sapiens))
Output: 1.9

Task: Under human S1P1 receptor (Homo sapiens): report EC50 of COc1cc(-c2nc(-c3cc(C)c(OC[C@@H](O)CNC(=O)CO)c(Cl)c3)no2)cc(C2CCCC2)n1 .
Output: 1.1

Task: Look up and report EC50, with human S1P1 receptor (Homo sapiens) as system, for CCc1cc(-c2noc(-c3cc(OC)nc(C4CCCC4)c3)n2)cc(C)c1OC[C@@H](O)CO
Output: 0.9

Task: Specify EC50 for CCc1cc(-c2noc(-c3cc(OC)nc(C(CC)CC)c3)n2)cc(C)c1NS(C)(=O)=O , system human S1P1 receptor (Homo sapiens).
Output: 2.5

Task: Answer briefly: EC50 recorded on human S1P1 receptor (Homo sapiens) for CCc1cc(-c2noc(-c3cc(CCC(C)C)nc(OC)c3)n2)cc(C)c1NS(C)(=O)=O
Output: 5.6

Task: Determine reported EC50 for CCc1cc(-c2noc(-c3cc(OC)nc(C(CC)CC)c3)n2)cc(C)c1OC[C@@H](O)CNC(=O)CO ; test system: human S1P1 receptor (Homo sapiens).
Output: 0.6

Task: GET EC50 where system = human S1P1 receptor (Homo sapiens) and item = CCC(CC)c1cc(-c2nc(-c3cc(C)c(NS(C)(=O)=O)c(Cl)c3)no2)cc(OC)n1
Output: 1.2

Task: # assay system human S1P1 receptor (Homo sapiens): give EC50 of CCc1cc(-c2nc(-c3cc(OC)nc(C4CCCC4)c3)no2)cc(C)c1OC[C@@H](O)CO
Output: 0.7

Task: Under human S1P1 receptor (Homo sapiens): report EC50 of COc1cc(-c2nc(-c3cc(C)c(OC[C@@H](O)CO)c(Cl)c3)no2)cc(C2CCCC2)n1 .
Output: 1

Task: Give reported EC50 for CCc1cc(-c2nc(-c3cc(OC)nc(C4CCCC4)c3)no2)cc(C)c1OC[C@@H](O)CNC(=O)CO (human S1P1 receptor (Homo sapiens))
Output: 0.4

Task: Jot down EC50 (human S1P1 receptor (Homo sapiens)) of CCc1cc(-c2noc(-c3cc(OC)nc(C4CCCC4)c3)n2)cc(C)c1OC[C@@H](O)CNC(=O)CO .
Output: 0.6

Task: Give the observed EC50 of CCc1cc(-c2noc(-c3cc(OC)nc(C4CCCC4)c3)n2)cc(C)c1OC[C@@H](O)CN(C)C(=O)CO for human S1P1 receptor (Homo sapiens).
Output: 2.6

Task: Find EC50 for CCc1cc(-c2nnc(-c3cc(OC)nc(C4CCCC4)c3)o2)cc(C)c1OC[C@H](O)CNC(=O)CO on human S1P1 receptor (Homo sapiens) and write it down.
Output: 2.3

Task: Tell me its EC50 on human S1P1 receptor (Homo sapiens): CCc1cc(-c2noc(-c3cc(CCC(C)C)nc(OC)c3)n2)cc(C)c1OC[C@@H](O)CNC(=O)CO
Output: 0.7

Task: # assay system human S1P1 receptor (Homo sapiens): give EC50 of CCc1cc(-c2noc(-c3cc(OC)nc(C(CC)CC)c3)n2)cc(C)c1OC[C@@H](O)CO
Output: 2.7

Task: # assay system human S1P1 receptor (Homo sapiens): give EC50 of COc1cc(-c2nc(-c3cc(C)c(OC[C@@H](O)CO)c(Cl)c3)no2)cc(C2CCCCC2)n1
Output: 4

Task: Fetch value of EC50 on human S1P1 receptor (Homo sapiens) for CCc1cc(-c2noc(-c3cc(OC)nc(C4CCCCC4)c3)n2)cc(C)c1NS(C)(=O)=O .
Output: 4.2

Task: For human S1P1 receptor (Homo sapiens), give the measured EC50 of the entry COc1cc(-c2nc(-c3cc(C)c(NS(C)(=O)=O)c(Cl)c3)no2)cc(C2CCCCC2)n1
Output: 10.2

Task: Using human S1P1 receptor (Homo sapiens) as the test system, report measured EC50 of COc1cc(-c2nc(-c3cc(C)c(NS(C)(=O)=O)c(Cl)c3)no2)cc(C2CCCC2)n1 .
Output: 0.3

Task: # return EC50 of CCc1cc(-c2nnc(-c3cc(OC)nc(C4CCCC4)c3)o2)cc(C)c1OC[C@@H](O)CNC(=O)CO (system: human S1P1 receptor (Homo sapiens))
Output: 1.7

Task: Return reported EC50 for target or system human S1P1 receptor (Homo sapiens), item CCc1cc(-c2noc(-c3cc(CCC(C)C)nc(OC)c3)n2)cc(C)c1OC[C@@H](O)CO .
Output: 7.5

Task: Answer with EC50 of CCc1cc(-c2noc(-c3cc(OC)nc(C4CCCC4)c3)n2)cc(C)c1OC[C@H](O)CO measured for human S1P1 receptor (Homo sapiens).
Output: 1

Task: Report EC50 from human S1P1 receptor (Homo sapiens) testing of CCc1cc(-c2nc(-c3cc(OC)nc(C4CCCC4)c3)no2)cc(C)c1OC[C@H](O)CNC(=O)CO
Output: 1.6

Task: Enter EC50 (test system human S1P1 receptor (Homo sapiens)) for CCc1cc(-c2nnc(-c3cc(OC)nc(C4CCCC4)c3)o2)cc(C)c1OC[C@H](O)CO
Output: 4
